Taken from PubChem BioAssay (NCI).

# System: A498 renal
# ASSAY METHOD TEXT: NCI-60 one-dose screen, 48 h (100 = growth as untreated, 0 = no growth, -100 = all killed)
# CONDITION CONTEXT: 10 µM
The panel holds about 83,000 compounds, 20% with a hit somewhere; the sample as a whole holds those more often.
QUANTITY NAME: growth (%)
Give the quantity in %, number only.

Here are 5 compounds together with their reported answers.
| COMPOUND | TARGET ENTITY | READOUT VALUE |
| --- | --- | --- |
| COc1cc(C=Nc2cccc(Br)c2)ccc1N(CCCl)CCCl | A498 renal | 120 |
| COC(=O)[C@@H](C)C[C@H](Cc1ccccc1)NC(=O)c1nc([C@@H](C[C@H](C(C)C)N(C)C(=O)[C@@H](NC(=O)[C@H]2CCCN2C)C(C)C)OC(C)=O)sc1C | A498 renal | -2.29 |
| COc1cc2c(cc1OCCCCCn1c(-c3ccco3)nc3ccccc31)N=C[C@@H]1CCCN1C2=O | A498 renal | -39.6 |
| c1cnc2[nH]cc(-c3csc(-c4cn(CCCCN5CCOCC5)c5ccccc45)n3)c2c1 | A498 renal | 56.8 |
| O=C(CC1(O)C(=O)N(Cc2ccccc2)c2ccc(Br)cc21)c1ccc(C(=O)NCC2CCC3(CC2)OOC2(CCCCC2)OO3)cc1 (centres undefined) | A498 renal | -74 |

I am curious: what growth value has been reported for CC(=O)Nc1ccc(NC(=O)c2ccc([As](O)O)cc2)cc1 ? 133

# growth lookup, item CCN(CCO)C(Cc1ccccc1)c1ccccc1 (centres undefined) 96.3

Which growth reading was recorded for the compound CC(=O)Nc1nc2c(s1)CC[C@@]1(C)C2=CC[C@H]2[C@@H]3CC[C@H](O)[C@@]3(C)CC[C@@H]21 ? 67.8

Given the compound CCOP(=O)(NC[C@H]1O[C@](O)(CO)[C@@H](O)[C@@H]1O)OCC , what is its reported growth? 99.9

----------
# System: OVCAR-4 ovarian
# ASSAY METHOD TEXT: NCI-60 one-dose screen, 48 h (100 = growth as untreated, 0 = no growth, -100 = all killed)
# CONDITION CONTEXT: 10 µM unless noted
About 83,000 compounds went through this panel and 20% of them were active in at least one assay; those are over-represented in the sample as a whole. The source made the active and inactive calls. Rule for the calls: active = growth percent below 10; inactive = the rest.
QUANTITY NAME: growth

| MOLECULE | growth |
| --- | --- |
| CCCCN1CCCC[C@@H]1C(=O)N[C@H](C(=O)N(C)[C@H](C[C@@H](OC(C)=O)c1nc(C(=O)NC2CCC(C(=O)OC)CC2)cs1)C(C)C)C(C)C (some centres undefined) | 52.2% (inactive) |
| NC(=O)c1c(Br)n(C2OC(CO)C(O)C2O)c2ncnc(N)c12 (centres undefined) | 16.1% (inactive) |
| Cn1cc(C2=C(c3cn(C4CCN(Cc5ccccn5)CC4)c4ccccc34)C(=O)NC2=O)c2ccccc21 | 76.8% (inactive) |

Report growth for Cc1cc(NC(=O)NCc2ccc(N3C(N)=NC(N)=NC3(C)C)cc2)ccc1S(=O)(=O)F please. 39.2% (inactive)

----------
# System: RXF 393 renal
# ASSAY METHOD TEXT: NCI-60 one-dose screen, 48 h (100 = growth as untreated, 0 = no growth, -100 = all killed)
# CONDITION CONTEXT: 10 µM unless noted
The panel holds about 83,000 compounds, 20% with a hit somewhere; the sample as a whole holds those more often.
Recorded measurements of growth, one per entry
Express your answer in %, writing the number without its unit.

Example cases with answers are listed next.
| COMPOUND | growth (%) |
| --- | --- |
| Cc1cc(N(CCCl)CCCl)ccc1C=Nc1ccc(-c2csc(Cc3ccccc3)n2)cc1 | 83.8 |
| COc1ccc(/C=C\c2cc(OC)c(OC)c(OC)c2)cc1NS(=O)(=O)c1ccc(Cl)cc1 | 65.8 |
| C/C(=C\c1ccn(-c2ccc(N)cc2C(F)(F)F)n1)[C@@H]1C[C@@H]2O[C@]2(C)CCC[C@H](C)[C@H](O)[C@@H](C)C(=O)C(C)(C)[C@@H](O)CC(=O)O1 | 9.23 |
| CC12CC(=O)C3(SC#N)C(CCC4=CC(=O)CCC43C)C1CCC2=O (configuration not stated) | 56.5 |
| CO[C@H](C(=O)O)[C@@H]1Cc2cc3cc(OC4CC(OC5CC(O)C(O)C(C)O5)C(O)C(C)O4)c(C)c(O)c3c(O)c2C(=O)[C@H]1OC1CC(OC2CC(OC3CC(C)(O)C(O)C(C)O3)C(O)C(C)O2)C(O)C(C)O1 (some centres not stated) | -57.1 |

For the compound shown here, CC[C@H](C)[C@@H]([C@@H](CC(=O)N1CCC[C@H]1[C@H](OC)[C@@H](C)C(=O)N[C@H](C)[C@@H](O)c1ccccc1)OC)N(C)C(=O)[C@@H](NC(=O)[C@@H](NC)C(C)C)C(C)C , give the reported growth. 46

For the compound Fc1ccc2c(c1)c(-c1nc(-c3c[nH]c4ncccc34)cs1)cn2CCN1CCOCC1 , what growth is on record? 61.6

Please give the measured growth for this compound: COc1ccc2c(c1)c(-c1nc(-c3c[nH]c4ncccc34)cs1)cn2CCCCN1CCCCC1 -85.8

# growth lookup, item CC12CC=CCC1CCC1C2CCC2(C)C(c3ccc(=O)oc3)CCC12O (configuration not stated) -46.5

Using the record for Oc1c(O)c(Cl)c(Cl)c(Cl)c1Cl , report its growth. 7.31

May I ask what growth has been recorded for CC(=O)OCc1cc[c]([Hg][Cl])o1 ? -38.7

Which value of growth has been reported for CC1CCCC(C[N+](C)(C)C)C1=O (configuration not stated) in the records? 112

Recorded growth for COc1cc([C@@H]2c3cc4c(cc3[C@H](OC(C)=O)[C@H]3COC(=O)[C@H]23)OCO4)cc(OC)c1OC , please? 54.9

# query: growth of entry CCCC[C@H](NC(=O)[C@H]1CCCCN1C)C(=O)N(C)[C@H](C[C@@H](OC(C)=O)c1nc(C(=O)N[C@@H](Cc2ccccc2)C[C@H](C)C(=O)OCC)cs1)C(C)C 28.8

Entry under review: O=C1C2C(C(=O)[N]1[Hg][c]1cccs1)C1(Cl)C(Cl)=C(Cl)C2(Cl)C1(Cl)Cl (configuration not stated) . Reported growth? -83.5

Need growth, item C=CC[PH+](c1ccccc1)c1ccccc1.C=CC[PH+](c1ccccc1)c1ccccc1.[Cl][Pt][Cl] -16.6

Given O=[N+]([O-])c1cc([N+](=O)[O-])c(Cl)cc1Cl , state its recorded growth. -90.6

Looking for the measured growth of O=C(CC1(O)C(=O)Nc2ccc(Cl)cc21)c1ccc(C(=O)NCC2CCC3(CC2)OOC2(CCCCC2)OO3)cc1 (configuration not stated) , can you help? 18.5

Query: growth; subject: CCCCNC(c1ccc(Cl)cc1)C(O)c1ccc(Cl)cc1 (configuration not stated) 58.4

Would you kindly share the measured growth for CC[C@H](C)[C@H](NC(=O)C12C3C4C1C1C2C3C41NC(C)=O)C(=O)N(C)[C@H](C[C@@H](OC(C)=O)c1nc(C(=O)N[C@@H](Cc2ccccc2)C[C@H](C)C(=O)OC)cs1)C(C)C (some centres not stated) ? 41.9

----------
# Tested on: SF-268 CNS
# ASSAY METHOD TEXT: NCI-60 one-dose screen, 48 h (100 = growth as untreated, 0 = no growth, -100 = all killed)
# CONDITION CONTEXT: 10 µM unless noted
The panel holds about 83,000 compounds, 20% with a hit somewhere; the sample as a whole holds those more often.
QUANTITY NAME: growth (%)
// units = %; emit number, no label

These recorded examples may help you get a feel for the data.
| MOLECULE | READOUT VALUE |
| --- | --- |
| COC(=O)C1CCC(NC(=O)c2csc([C@@H](C[C@H](C(C)C)N(C)C(=O)[C@@H](NC(=O)[C@H]3CCCCN3C)C(C)C)OC(C)=O)n2)CC1 (some centres not stated) | 22.6 |
| C[C@@H]1CCC2[C@@H](C)[C@H](OC(=O)CCC(=O)NCCNC(=O)Cc3cc(=O)oc4cc(N(C)C)ccc34)O[C@@H]3O[C@]4(C)CC[C@@H]1C23OO4 (some centres not stated) | 56.7 |
| CCCCN(CCCC)P(=O)(Oc1ccccc1)Oc1ccccc1 | 84 |

Record request: growth value, item CC(C)(NC(=O)O[C@@H]1CN2CCC1CC2)c1csc(-c2ccc(F)cc2)n1 88.7

# get_value(readout='growth', item= CCCCCCCCCCCCCCCCCCOc1ccccc1COP(=O)(O)OOCC[N+](C)(C)C ) 10.6

Quick check: growth of Nc1ccc(OCCNS(=O)(=O)c2cccc(S(=O)(=O)F)c2)c(Cl)c1 ? 102

Give its growth value. Item: c1ccc(Nc2nc(-c3ccccc3)c[se]2)cc1 95.7

Look up growth: CN[C@@]1(c2ccccc2Cl)CCCC[C@@H]1NCC1CCCO1 (some centres not stated) 103

Find the recorded growth belonging to O=C(CC1(O)C(=O)Nc2ccccc21)c1ccc(C(=O)NCC2CCC3(CC2)OOC2(CCCCC2)OO3)cc1 (configuration not stated) and report it. 82

Field request: growth | item: COc1cc([C@@H]2c3cc4c(cc3[C@H](OC(C)=O)[C@H]3COC(=O)[C@H]23)OCO4)cc(OC)c1OC 37

Suppose we examine the molecule COc1cccc2c1c(C(=O)C(=O)Nc1cc(C)no1)cn2Cc1ccc(F)cc1 ; what growth value has been reported? 64.3

Which growth value belongs to NC(=O)C(Br)c1ccccc1 (configuration not stated) ? 79.6
